B1: CPEB3 Ribozyme (parent)
chain: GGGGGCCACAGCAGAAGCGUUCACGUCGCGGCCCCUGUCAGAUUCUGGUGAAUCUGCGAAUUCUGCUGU

variants of: B1; assay: self-cleavage, relative activity (ratio to wild type); higher = more cleavage; co-transcriptional
Quantity kind: self-cleavage

These recorded examples may help you get a feel for the data.
Mutation code: C29A G68A
self-cleavage: 0.914
//
Mutation code: A16G U43G
self-cleavage: 0.708
//
Mutation code: U44C U67C
self-cleavage: 0.937

Quick one: give me self-cleavage for each item below, same order please.
1. C35G A59G
2. C9A G37U
3. A23U G47C
4. A16G U26C
5. C34A A60G
6. C7U C12U
7. G14A U21A

1: 0.488; 2: 0.401; 3: 0.999; 4: 0.555; 5: 0.44; 6: 0.94; 7: 0.646
